Read-out: Tumor necrosis factor receptor superfamily member 6 (Homo sapiens) (UniProt P25445)
Test: LTEA_HepaRG_FAS: Life Technologies and Expression Analysis (LTEA) Assay for Fas cell surface death receptor (FAS) using HepaRG (AID 2283447)
Conditions: mRNA level, 48 h; actives raise or lower the signal
Description: LTEA_HepaRG is a cell based, multiplexed-readout assay that uses HepaRG, a human liver cell line, with measurements taken at 48 hours after chemical dosing on a 96-well plate.LTEA_HepaRG_FAS is one of 102 assay component(s) measured in the LTEA HepaRG cell culture assay. It is a marker of Cell proliferation, survival, death.Data from the assay component LTEA_HepaRG_FAS was analyzed into 1 endpoint. […]
Active and inactive are the calls of the source. How the source made its calls: active means hit-call score of the fitted dose curve at least 0.9, where 1 is the maximum; inactive means score below 0.9.
value-kind: AC50

Check out these entries, answers already filled in.
| compound | value-kind | recorded-result |
| --- | --- | --- |
| CC(C)(C)c1cc(O)c(C(C)(C)C)cc1O | AC50 | 81.7 µM (active) |
| COc1cc(-c2nc(NC(=O)c3cc4cc(C)cc(C)c4n3CC(=O)O)sc2CCC2CCCCC2)c(OC)cc1Cl | AC50 | 20.8 µM (active) |
| O=C(OCCCCCOC(=O)c1ccccc1)c1ccccc1 | AC50 | 1.08 µM (active) |
| CC(=O)Oc1ccccc1C(=O)O | AC50 | inactive |
| Cc1nc(-c2ccc3c(c2)CCN(CCC2CCC(NC(=O)/C=C/c4ccc(F)cc4)CC2)CC3)no1 (configuration not stated) | AC50 | inactive |
| CCCCCCOCCO | AC50 | inactive |
| COc1cc(C=O)ccc1O | AC50 | inactive |
| O=C(O)CCCCC(=O)O | AC50 | inactive |
| CC(CO)OC(C)CO (configuration not stated) (tested in a mixture with another compound) | AC50 | inactive |
| Cc1cc(=O)[nH]c(=S)[nH]1 | AC50 | inactive |

Sure, the documented AC50 for O=c1[nH]cc(F)c(=O)[nH]1 is 31.3 µM (active)

Sure, the documented AC50 for CN[C@H]1CC[C@@H](c2ccc(Cl)c(Cl)c2)c2ccc(S(N)(=O)=O)cc21 is inactive

====

molecular target: Retinoic acid receptor alpha (Homo sapiens) (UniProt P10276); experiment: ATG_DR5_RAR_CIS: Attagene CIS-FACTORIAL HepG2 Assay for human Retinoic Acid Receptor Alpha (RARE), DR5 submotif (AID 2282934); conditions: HepG2 Attagene cis-factorial RARE DR5 reporter, mRNA; actives raise or lower the signal
Sequence (P10276 whole entry, looked up): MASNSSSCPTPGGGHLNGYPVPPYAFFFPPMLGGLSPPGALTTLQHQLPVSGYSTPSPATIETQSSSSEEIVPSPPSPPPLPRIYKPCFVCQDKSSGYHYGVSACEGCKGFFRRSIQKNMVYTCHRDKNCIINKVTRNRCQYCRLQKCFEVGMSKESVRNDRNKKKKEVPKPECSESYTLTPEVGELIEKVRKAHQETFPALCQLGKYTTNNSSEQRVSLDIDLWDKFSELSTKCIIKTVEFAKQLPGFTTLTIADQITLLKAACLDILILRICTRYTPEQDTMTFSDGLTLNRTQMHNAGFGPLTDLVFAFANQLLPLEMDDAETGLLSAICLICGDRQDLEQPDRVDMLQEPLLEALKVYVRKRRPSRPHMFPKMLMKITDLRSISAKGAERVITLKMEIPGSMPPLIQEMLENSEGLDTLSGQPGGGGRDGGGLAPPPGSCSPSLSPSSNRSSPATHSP
Active and inactive are the calls of the source. How the source made its calls: active means hit-call score of the fitted dose curve at least 0.9, where 1 is the maximum; inactive means score below 0.9.
Output constraint: value belongs to YES for active, NO for inactive

| molecule | discrete-label |
| --- | --- |
| CC(C)c1ccc(C(=O)N=C(N)N)cc1S(C)(=O)=O | NO |
| COc1ccc(S(=O)(=O)N2C(=O)[C@@](c3ccccc3OC)(N3C[C@H](O)C[C@H]3C(=O)N(C)C)c3cc(Cl)ccc32)c(OC)c1 | NO |
| CCCCCCC(=O)OCC | NO |
| CCCCOC(=O)CCCCCCCCC(=O)OCCCC | NO |
| CC(=O)OC/C=C(\C)CCC=C(C)C | NO |

Per the assay record, what outcome was assigned to O=C(OCCCCCOC(=O)c1ccccc1)c1ccccc1 ?
NO

Per the assay record, what outcome was assigned to Cc1oc(-c2ccccc2)nc1CCOc1cccc2c1ccn2CCC(=O)O ?
NO

Per the assay record, what outcome was assigned to Cc1ccc2ncccc2c1 ?
NO

Per the assay record, what outcome was assigned to CCOC(=O)CCC(=O)OCC ?
NO

Per the assay record, what outcome was assigned to CC(=O)OCCOCCOCCOC(C)=O ?
NO

Per the assay record, what outcome was assigned to O=C(N[C@@H](Cc1ccccc1)[C@@H](O)C(=O)N1C[C@@H](O)[C@@H](O)C1)c1cc2cc(Cl)ccc2[nH]1 ?
NO
